The reported numbers originate from patent US20250017912A1.

- ASSAY DETAILS: Tacrolimus whole blood pharmacokinetics (LC-MS-MS) after SC Composition A
- Assay type: in vivo, human
- EXPERIMENTAL SETUP: human, whole blood, subcutaneous, single dose Day 1 and QAD dosing for 5 days, all doses; read-out: Tacrolimus median Tmax
- Procedure: Tacrolimus. Blood samples were obtained from all subjects in parallel as for plerixafor. Whole blood from each sample was stored in −80° C. condition until shipment. The analysis of K2EDTA whole blood for the quantitation of tacrolimus using a validated method by LC-MS-MS was performed by Worldwide Clinical Trials, Bioanalytical Services (Austin, TX, USA) in compliance with principles of GLP standards as referenced above. […]
MEASURE NAME: Tmax

Enquiry: I have this compound here, `C=CC[C@@H]1/C=C(\C)C[C@H](C)C[C@H](OC)[C@H]2O[C@@](O)(C(=O)C(=O)N3CCCC[C@H]3C(=O)O[C@H](/C(C)=C/[C@@H]3CC[C@@H](O)[C@H](OC)C3)[C@H](C)[C@@H](O)CC1=O)[C@H](C)C[C@@H]2OC` , and I need its recorded Tmax.
Return: 2 to 12 h

---

- ASSAY DETAILS: Tacrolimus whole blood pharmacokinetics (LC-MS-MS) after SC Composition A
- Assay type: in vivo, human
- EXPERIMENTAL SETUP: human, whole blood, sc, 0.02 mL/kg, Composition A 0.02 mL/kg SC QAD, Day 5; read-out: Tacrolimus Cmax (GM)
MEASURE NAME: Cmax (ng/mL)
Write the number in ng/mL without appending the unit.

Enquiry: I have this compound here, `C=CC[C@@H]1/C=C(\C)C[C@H](C)C[C@H](OC)[C@H]2O[C@@](O)(C(=O)C(=O)N3CCCC[C@H]3C(=O)O[C@H](/C(C)=C/[C@@H]3CC[C@@H](O)[C@H](OC)C3)[C@H](C)[C@@H](O)CC1=O)[C@H](C)C[C@@H]2OC` , and I need its recorded Cmax.
Return: 7.91

---

- ASSAY DETAILS: Tacrolimus whole blood pharmacokinetics (LC-MS-MS) after SC Composition A
- Format: in vivo, human
- EXPERIMENTAL SETUP: human, whole blood, sc, 0.01 mL/kg, Composition A 0.01 mL/kg SC, Day 1; read-out: Tacrolimus AUCtau (GM)
MEASURE NAME: AUC (ng·h/mL)
Write the number in ng·h/mL without appending the unit.

Enquiry: I have this compound here, `C=CC[C@@H]1/C=C(\C)C[C@H](C)C[C@H](OC)[C@H]2O[C@@](O)(C(=O)C(=O)N3CCCC[C@H]3C(=O)O[C@H](/C(C)=C/[C@@H]3CC[C@@H](O)[C@H](OC)C3)[C@H](C)[C@@H](O)CC1=O)[C@H](C)C[C@@H]2OC` , and I need its recorded AUC.
Return: 105

---

- ASSAY DETAILS: Tacrolimus whole blood pharmacokinetics (LC-MS-MS) after SC Composition A
- Format: in vivo, human
- EXPERIMENTAL SETUP: human, whole blood, sc, 0.005 mL/kg, Composition A 0.005 mL/kg SC QAD, Day 5; read-out: Tacrolimus AUCtau (GM)
- Description: Tacrolimus. Blood samples were obtained from all subjects in parallel as for plerixafor. Whole blood from each sample was stored in −80° C. condition until shipment. The analysis of K2EDTA whole blood for the quantitation of tacrolimus using a validated method by LC-MS-MS was performed by Worldwide Clinical Trials, Bioanalytical Services (Austin, TX, USA) in compliance with principles of GLP standards as referenced above. […]
MEASURE NAME: AUC (ng·h/mL)
Write the number in ng·h/mL without appending the unit.

Enquiry: I have this compound here, `C=CC[C@@H]1/C=C(\C)C[C@H](C)C[C@H](OC)[C@H]2O[C@@](O)(C(=O)C(=O)N3CCCC[C@H]3C(=O)O[C@H](/C(C)=C/[C@@H]3CC[C@@H](O)[C@H](OC)C3)[C@H](C)[C@@H](O)CC1=O)[C@H](C)C[C@@H]2OC` , and I need its recorded AUC.
Return: 70.1

---

- ASSAY DETAILS: Tacrolimus whole blood pharmacokinetics (LC-MS-MS) after SC Composition A
- Assay type: in vivo, human
- EXPERIMENTAL SETUP: human, whole blood, sc, 0.005 mL/kg, Composition A 0.005 mL/kg SC QAD, Day 5; read-out: Tacrolimus Tmax (Median)
MEASURE NAME: Tmax (h)
Write the number in h without appending the unit.

Enquiry: I have this molecule here, `C=CC[C@@H]1/C=C(\C)C[C@H](C)C[C@H](OC)[C@H]2O[C@@](O)(C(=O)C(=O)N3CCCC[C@H]3C(=O)O[C@H](/C(C)=C/[C@@H]3CC[C@@H](O)[C@H](OC)C3)[C@H](C)[C@@H](O)CC1=O)[C@H](C)C[C@@H]2OC` , and I need its recorded Tmax.
Return: 10

---

- ASSAY DETAILS: Tacrolimus whole blood pharmacokinetics (LC-MS-MS) after SC Composition A
- Type: in vivo, human
- EXPERIMENTAL SETUP: human, whole blood, sc, 0.005 mL/kg, Composition A 0.005 mL/kg SC, Day 1; read-out: Tacrolimus Cmax (GM)
MEASURE NAME: Cmax

Enquiry: I have this compound here, `C=CC[C@@H]1/C=C(\C)C[C@H](C)C[C@H](OC)[C@H]2O[C@@](O)(C(=O)C(=O)N3CCCC[C@H]3C(=O)O[C@H](/C(C)=C/[C@@H]3CC[C@@H](O)[C@H](OC)C3)[C@H](C)[C@@H](O)CC1=O)[C@H](C)C[C@@H]2OC` , and I need its recorded Cmax.
Return: 1.47 ng/mL

---

- ASSAY DETAILS: Tacrolimus whole blood pharmacokinetics (LC-MS-MS) after SC Composition A
- Assay type: in vivo, human
- EXPERIMENTAL SETUP: human, whole blood, sc, 0.005 mL/kg, Composition A 0.005 mL/kg SC QAD, Day 5; read-out: Tacrolimus t1/2 (GM) (converted)
MEASURE NAME: half-life (h)
Write the number in h without appending the unit.

Enquiry: I have this compound here, `C=CC[C@@H]1/C=C(\C)C[C@H](C)C[C@H](OC)[C@H]2O[C@@](O)(C(=O)C(=O)N3CCCC[C@H]3C(=O)O[C@H](/C(C)=C/[C@@H]3CC[C@@H](O)[C@H](OC)C3)[C@H](C)[C@@H](O)CC1=O)[C@H](C)C[C@@H]2OC` , and I need its recorded half-life.
Return: 24.9

---

- ASSAY DETAILS: Tacrolimus whole blood pharmacokinetics (LC-MS-MS) after SC Composition A
- Type: in vivo, human
- EXPERIMENTAL SETUP: human, whole blood, sc, 0.005 mL/kg, Composition A 0.005 mL/kg SC QAD, Day 5; read-out: Tacrolimus Cmax (GM)
MEASURE NAME: Cmax
# answer = value followed by unit

Enquiry: I have this compound here, `C=CC[C@@H]1/C=C(\C)C[C@H](C)C[C@H](OC)[C@H]2O[C@@](O)(C(=O)C(=O)N3CCCC[C@H]3C(=O)O[C@H](/C(C)=C/[C@@H]3CC[C@@H](O)[C@H](OC)C3)[C@H](C)[C@@H](O)CC1=O)[C@H](C)C[C@@H]2OC` , and I need its recorded Cmax.
Return: 2.09 ng/mL

---

- ASSAY DETAILS: Tacrolimus whole blood pharmacokinetics (LC-MS-MS) after SC Composition A
- Assay type: in vivo, human
- EXPERIMENTAL SETUP: human, whole blood, sc, 0.005 mL/kg, Composition A 0.005 mL/kg SC, Day 1; read-out: Tacrolimus Tmax (Median)
- Method: Tacrolimus. Blood samples were obtained from all subjects in parallel as for plerixafor. Whole blood from each sample was stored in −80° C. condition until shipment. The analysis of K2EDTA whole blood for the quantitation of tacrolimus using a validated method by LC-MS-MS was performed by Worldwide Clinical Trials, Bioanalytical Services (Austin, TX, USA) in compliance with principles of GLP standards as referenced above. […]
MEASURE NAME: Tmax
# answer = value followed by unit

Enquiry: I have this compound here, `C=CC[C@@H]1/C=C(\C)C[C@H](C)C[C@H](OC)[C@H]2O[C@@](O)(C(=O)C(=O)N3CCCC[C@H]3C(=O)O[C@H](/C(C)=C/[C@@H]3CC[C@@H](O)[C@H](OC)C3)[C@H](C)[C@@H](O)CC1=O)[C@H](C)C[C@@H]2OC` , and I need its recorded Tmax.
Return: 7.5 h

---

- ASSAY DETAILS: Tacrolimus whole blood pharmacokinetics (LC-MS-MS) after SC Composition A
- Format: in vivo, human
- EXPERIMENTAL SETUP: human, whole blood, sc, 0.01 mL/kg, Composition A 0.01 mL/kg SC QAD, Day 5; read-out: Tacrolimus Cmax (GM)
MEASURE NAME: Cmax (ng/mL)
Write the number in ng/mL without appending the unit.

Enquiry: I have this molecule here, `C=CC[C@@H]1/C=C(\C)C[C@H](C)C[C@H](OC)[C@H]2O[C@@](O)(C(=O)C(=O)N3CCCC[C@H]3C(=O)O[C@H](/C(C)=C/[C@@H]3CC[C@@H](O)[C@H](OC)C3)[C@H](C)[C@@H](O)CC1=O)[C@H](C)C[C@@H]2OC` , and I need its recorded Cmax.
Return: 5.37
